Data credit: PubChem BioAssay

Test: growth inhibition of DIPG glioma cells, dose response, cell-based, SU-DIPG-XIII, MIPE4.0, CellTiter-Glo, qHTS (AID 1347061);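 further: cells exposed to compound for 48 hours before readout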
Settings: SU-DIPG-XIII viability, CellTiter-Glo ATP luminescence
Inconclusive results are not listed. The source made the active and inactive calls. Cut-off not given; nearly all actives show AC50 up to about 37 µM.
Tick one outcome: active, inactive

Per the assay record, what outcome was assigned to CC(C)OC(=O)OCOP(=O)(CO[C@H](C)Cn1cnc2c(N)ncnc21)OCOC(=O)OC(C)C ? inactive

Which outcome did this test record for the compound CS(=O)(=O)c1ccc(C2=C(c3ccccc3)C(=O)OC2)cc1 ? inactive

# fetch the recorded call for C[C@H]1C[C@H]2[C@@H]3CCC4=CC(=O)C=C[C@]4(C)[C@H]3C(=O)C[C@]2(C)[C@@]1(O)C(=O)CO here inactive

Check the results log: what was the call for OC(CCN1CCCCC1)(c1ccccc1)C1CC2C=CC1C2 (centres undefined) ? inactive

What did this assay record as the result for COc1c2occc2cc2ccc(=O)oc12 ? inactive

I would be grateful if you could indicate the recorded call for O=c1c(O)c(-c2ccc(O)cc2O)oc2cc(O)cc(O)c12 . inactive

Returns: the outcome recorded for Cc1cc(NS(=O)(=O)c2ccc(N)cc2)no1 in this assay. active

Which result was noted for this compound in the test: OCc1ccccc1O[C@@H]1O[C@H](CO)[C@@H](O)[C@H](O)[C@H]1O inactive

I would be grateful if you could indicate the recorded call for C[C@]12CCC(=O)C=C1[C@@H]1C[C@@H]1[C@H]1[C@@H]3[C@@H]4C[C@@H]4[C@@]4(CCC(=O)O4)[C@@]3(C)CC[C@@H]12 . inactive

Which outcome was entered for the compound O=S(=O)(c1cccc2cnccc12)N1CCCNCC1 in this test? inactive

Call for entry CC(C)(C)NCC(O)c1ccc(O)c(CO)c1 (centres undefined) : inactive

Hello, I am checking results. What call was entered for NC(=O)Cc1cccc(C(=O)c2ccccc2)c1N ? inactive

For Cc1ccc(N(CC2=NCCN2)c2cccc(O)c2)cc1 , which call appears in the assay record? inactive

GET /call?item= CCN[C@H]1C[C@H](C)S(=O)(=O)c2sc(S(N)(=O)=O)cc21 returns the recorded outcome of this test. inactive

Name the outcome recorded for Cc1cc(O)c2c(c1)C(=O)c1cc(O)cc(O)c1C2=O in the assay. inactive

Please state the recorded outcome for this compound: Nc1ccn(C[C@@H](CO)OCP(=O)(O)O)c(=O)n1 inactive

Hi team, can someone confirm the assay call for C[C@H]1[C@H](C)CC[C@]2(C(=O)O)CC[C@]3(C)C(=CC[C@@H]4[C@@]5(C)CC[C@H](O)C(C)(C)[C@@H]5CC[C@]43C)[C@H]12 ? inactive

What did this assay record as the result for CC(=O)SC[C@@H](C)C(=O)N1CCC[C@H]1C(=O)N[C@@H](Cc1ccccc1)C(=O)O ? inactive

So what was the verdict on CN1C2CCC1CC(OC(=O)C(CO)c1ccccc1)C2 (centres undefined) in this test? inactive

Test call for this compound, please: CCN(CC)CCNC(=O)c1c(C)[nH]c(/C=C2\C(=O)Nc3ccc(F)cc32)c1C active

Call for entry COc1cc2ncnc(Nc3ccc(F)c(Cl)c3)c2cc1OCCCN1CCOCC1 : active

Fill in: this test's call for COc1nc(N)nc2c1ncn2[C@@H]1O[C@H](CO)[C@@H](O)[C@@H]1O is ___ inactive

I'd appreciate the recorded outcome for CNC(=O)c1cc(Oc2ccc(NC(=O)Nc3ccc(Cl)c(C(F)(F)F)c3)cc2)ccn1 from this test. active

Returns: the outcome recorded for Cc1ccccc1C(=O)Nc1ccc(C(=O)N2CCCC(O)c3cc(Cl)ccc32)c(C)c1 (centres undefined) in this assay. inactive

Any idea what this test logged for O=P(O)(O)C(O)(Cn1ccnc1)P(=O)(O)O ? inactive

For O=C(O)CCn1c2c(c3ccccc31)C[C@H](NS(=O)(=O)c1ccc(F)cc1)CC2 , which call appears in the assay record? inactive

Check the results log: what was the call for Nc1ccn([C@@H]2O[C@H](CO)[C@@H](O)[C@H]2O)c(=O)n1 ? inactive

Field: outcome | Entry: O=C(NCC1CCCCN1)c1cc(OCC(F)(F)F)ccc1OCC(F)(F)F (centres undefined) inactive

Identify the outcome logged in this assay for the compound shown: CC(C(=O)O)c1ccc2c(c1)CC(=O)c1ccccc1S2 (centres undefined) active

Which outcome did this test record for the compound COc1c(O)cc2c(c1O)[C@@H]1O[C@H](CO)[C@@H](O)[C@H](O)[C@H]1OC2=O ? inactive

Please indicate how the test categorized COc1ccc(/C=C/C(=O)Nc2ccccc2C(=O)O)cc1OC . inactive

Each compound tested received a call. Report the one for CCn1cc(C(=O)O)c(=O)c2ccc(C)nc21 . inactive

Answer briefly: the call reported for CC(C)C[C@H](NC(=O)[C@H](Cc1ccccc1)NC(=O)c1cnccn1)B(O)O in this assay. active

What did the test return for CCc1ccc(OCc2ccccc2C(=O)Nc2ccc3nc(C)cc(N)c3c2)cc1 ? active

* * *

Can you tell me survival for the items I'm about to list?
Experiment: hESC survival regulators, cell-based (AID 493140);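 further: cells exposed to compounds for four days before counting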
Conditions: human embryonic stem cell survival screen; hits give high values
The source made the active and inactive calls. No rule for the calls is given here.

Dear colleague, I am looking for the recorded survival of the following molecule: C(=C\c1ccccc1)/CN1CCN(C(c2ccccc2)c2ccccc2)CC1 11.3 (inactive)

What does the data say about its survival? Entry: CN1CCN(C2=Nc3cc(Cl)ccc3Nc3ccccc32)CC1 15.2 (inactive)

// lookup survival for CCCOc1cc(N)ccc1C(=O)OCCN(CC)CC 9.5 (inactive)

Quick one: survival for CCCCC/C=C\C/C=C\C/C=C\C/C=C\CCCC(=O)O ? 45.6 (inactive)

# lookup: survival of CC(=O)c1ccc2c(c1)N(CCCN(C)C)c1ccccc1S2 4.75 (inactive)

GET /values?readout=survival&item= CC(C)(CO)[C@@H](O)C(=O)NCCCO 26.3 (inactive)

What does the record list as survival for OCCN1CCN(CC/C=C2/c3ccccc3Sc3ccc(C(F)(F)F)cc32)CC1 ? 3.17 (inactive)

Consider the molecule COc1cc2cc3c4cc(OC)c(OC)cc4cc[n+]3c(C)c2cc1OC and give its measured survival. 0.333 (inactive)

Please give the measured survival for this molecule: Cn1cc[nH]c1=S 1.42 (inactive)

I'd like to know its survival. The molecule in question is CN[C@H](CC(C)C)C(=O)N[C@H]1C(=O)N[C@@H](CC(N)=O)C(=O)N[C@H]2C(=O)N[C@H]3C(=O)N[C@H](C(=O)N[C@H](C(=O)O)c4cc(O)cc(O)c4-c4cc3ccc4O)[C@H](O)c3ccc(c(Cl)c3)Oc3cc2cc(c3O[C@@H]2O[C@H](CO)[C@@H](O)[C@H](O)[C@H]2O[C@H]2C[C@](C)(N)[C@H](O)[C@H](C)O2)Oc2ccc(cc2Cl)[C@H]1O 13.8 (inactive)

Tell me the measured survival of CC(=O)c1ccc2c(c1)N(CCCN1CCC(CCO)CC1)c1ccccc1S2 , please. 3.92 (inactive)

Can you look up the measured survival of Clc1ccc(Cn2c(CN3CCCC3)nc3ccccc32)cc1 for me? 21.8 (inactive)

// returns reported survival for input NS(=O)(=O)c1cc(Cl)c(Cl)c(S(N)(=O)=O)c1 2 (inactive)

Given the molecule O=C(/C=C/c1ccc(O)c(O)c1)O[C@@H]1C[C@](O)(C(=O)O)C[C@@H](O)[C@H]1O , what is its reported survival? 22.8 (inactive)

Consider the molecule COCC(=O)Nc1c(I)c(C(=O)NCC(O)CO)c(I)c(C(=O)N(C)CC(O)CO)c1I (stereo not drawn) and give its measured survival. 1.33 (inactive)

Entry COc1ccc2c(c1OC)C(=O)O[C@@H]2[C@H]1c2c(cc3c(c2OC)OCO3)CCN1C : reported survival = ? 2.92 (inactive)

# get_value(readout='survival', item= c1coc(CNc2ncnc3nc[nH]c23)c1 ) 3.5 (inactive)

What value of measured survival is listed for O=c1cc(-c2ccc(O)cc2)oc2cc(O)cc(O)c12 ? 17.8 (inactive)

# lookup: survival of CN(C)C(=O)C(CCN1CCC(O)(c2ccc(Cl)cc2)CC1)(c1ccccc1)c1ccccc1 9 (inactive)

# input molecule: CC(Oc1ccccc1)C(=O)N[C@@H]1C(=O)N2[C@@H]1SC(C)(C)[C@@H]2C(=O)O (stereo partly drawn) ; wanted: its survival 7.92 (inactive)

Tell me the measured survival of CN(C)C(=N)N=C(N)N , please. 14 (inactive)

I have this molecule here, CC(=O)Oc1ccccc1C(=O)Oc1ccccc1C(=O)O , and I need its recorded survival. 16.8 (inactive)

# lookup: survival of N=C(N=C(N)N)N1CCOCC1 19.5 (inactive)

Consider the molecule Cc1cc(NS(=O)(=O)c2ccc(N)cc2)no1 and give its measured survival. 30.6 (inactive)

Any idea what its survival is? The molecule is Cc1c(-c2ccccc2)oc2c(C(=O)OCCN3CCCCC3)cccc2c1=O 21.4 (inactive)

Recorded survival of CC(=O)N=c1sc(S(N)(=O)=O)nn1C , please. 5.08 (inactive)

Field request: survival | item: COc1cc2c(cc1OC)-c1cc3ccc(OC)c(OC)c3c[n+]1CC2 1.83 (inactive)

# input molecule: CNCCC=C1c2ccccc2CCc2ccccc21 ; wanted: its survival 3.42 (inactive)

Which survival is reported for this molecule? CC(=O)OCC(=O)[C@@]1(OC(C)=O)[C@@H](C)C[C@H]2[C@@H]3C[C@H](F)C4=CC(=O)C=C[C@]4(C)[C@@]3(F)[C@@H](O)C[C@@]21C 6.42 (inactive)

Given O=C(N/N=C/c1ccc([N+](=O)[O-])o1)c1ccc(O)cc1 , state its recorded survival. 8.5 (inactive)

# input molecule: CS(=O)(=O)c1ccc([C@@H](O)[C@@H](CF)NC(=O)C(Cl)Cl)cc1 ; wanted: its survival 1.92 (inactive)

Could you share which survival value was measured for OCCOCCN1CCN(C(c2ccccc2)c2ccc(Cl)cc2)CC1 (stereo not drawn) ? 12.3 (inactive)

// survival lookup, key: O=C1CN(/N=C/c2ccc([N+](=O)[O-])o2)C(=O)N1 10.8 (inactive)

Request the reported survival associated with CN1CCc2c(c3ccccc3n2Cc2ccccc2)C1 3.25 (inactive)

What value of survival has been recorded for this entry: CC(C(=O)O)c1ccc(N2Cc3ccccc3C2=O)cc1 (stereo not drawn) 4.83 (inactive)

Item CN(C)c1nc(N(C)C)nc(N(C)C)n1 has what recorded survival? 2.92 (inactive)

Which survival value belongs to C#C[C@]1(O)CC[C@H]2[C@@H]3CCC4=C(CCC(=O)C4)[C@H]3CC[C@@]21C ? 25.3 (inactive)

GET /values?readout=survival&item= CN(C)CCCOc1nn(Cc2ccccc2)c2ccccc12 9 (inactive)

Consider the molecule CC(C)(Oc1ccc(C2CC2(Cl)Cl)cc1)C(=O)O (stereo not drawn) and give its measured survival. 3.17 (inactive)

What does the data say about its survival? Entry: NC(N)=NC(N)=NCCc1ccccc1 15 (inactive)

Which survival reading was recorded for the molecule C[C@@H](O)[C@H]1C(=O)N2C(C(=O)O)=C(SCCN=CN)C[C@H]12 ? 8.25 (inactive)

# input molecule: CC(O)Cn1cnc2c1c(=O)n(C)c(=O)n2C (stereo not drawn) ; wanted: its survival 7 (inactive)

So what's the measured survival for this one? O=c1c(-c2ccc(O)cc2)coc2cc(O)ccc12 70.6 (inactive)
